# reported Phospha-tidylcholine (C18:0, 18:2); entries follow
Test system: Wistar (Crl:WI(Han)) rats
Assay: Mass spectrometry-based plasma metabolite profiling of rats treated with known inducers of thyroid function impairment
Assay type: in vivo, rat
Conditions: male rats, mh7 (study day 7), ratio of group medians vs controls, Table 4
Property Label: Phospha-tidylcholine (C18:0, 18:2)

1. CCC1(c2ccccc2)C(=O)NC(=O)NC1=O [Phenobarbital sodium]: 1.13
2. Cc1cccc(C)c1N(Cn1cccn1)C(=O)CCl: 1.40
3. CCC(CC)Nc1c([N+](=O)[O-])cc(C)c(C)c1[N+](=O)[O-]: 1.26
4. Cn1cc[nH]c1=S: 1.11
